- experimental.target: furin, P09958;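 further: purified furin at 1:10 enzyme:substrate in 50 mM HEPES pH 7.5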
- Sequence (P09958 whole entry): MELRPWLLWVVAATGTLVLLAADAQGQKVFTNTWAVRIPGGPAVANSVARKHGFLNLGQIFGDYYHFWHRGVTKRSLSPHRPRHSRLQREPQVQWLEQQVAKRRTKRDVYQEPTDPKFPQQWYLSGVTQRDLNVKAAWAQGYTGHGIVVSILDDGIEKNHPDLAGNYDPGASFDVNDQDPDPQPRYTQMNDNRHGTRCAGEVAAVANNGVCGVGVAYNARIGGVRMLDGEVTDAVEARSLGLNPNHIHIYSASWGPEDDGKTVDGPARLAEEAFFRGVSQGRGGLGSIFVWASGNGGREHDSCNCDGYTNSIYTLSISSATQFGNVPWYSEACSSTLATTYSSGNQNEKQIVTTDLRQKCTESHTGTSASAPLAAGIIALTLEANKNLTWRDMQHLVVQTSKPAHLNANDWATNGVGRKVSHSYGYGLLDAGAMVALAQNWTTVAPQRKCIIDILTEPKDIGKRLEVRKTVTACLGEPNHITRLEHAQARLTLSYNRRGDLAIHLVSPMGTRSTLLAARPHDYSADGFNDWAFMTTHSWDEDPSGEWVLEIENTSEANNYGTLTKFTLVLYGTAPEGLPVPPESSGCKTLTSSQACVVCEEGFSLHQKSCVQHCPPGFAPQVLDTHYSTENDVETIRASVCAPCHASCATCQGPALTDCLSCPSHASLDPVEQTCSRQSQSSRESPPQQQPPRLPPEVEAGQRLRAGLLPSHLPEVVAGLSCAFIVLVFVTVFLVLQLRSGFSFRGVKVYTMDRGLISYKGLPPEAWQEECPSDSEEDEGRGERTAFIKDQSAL
- test.details: furin cleavage Z-score vs untreated control; higher = more cleavage, active = 3.5 or more, inactive = 1 or less, 8 variable residues between constant flanks
- condition.notes: 15 min
The list shows a part of the results. The hit rate among all sequences tested is not known here.
Kindly state furin cleavage Z-score for each of the entries shown.
Just the number, please.

Form field furin cleavage Z-score, entry CARYRRLTGDAGNASASA [FS-1843] : -0.169

Form field furin cleavage Z-score, entry CAALSNSLLRAGNASASA [HC1383] : 0.165

Form field furin cleavage Z-score, entry CARNKREDRTAGNASASA [FS-2727] : 12.6

Form field furin cleavage Z-score, entry CARLASCRPLAGNASASA [HC388] : -1.06

Form field furin cleavage Z-score, entry CARLKRRVKSAGNASASA [FS-2351] : 6

Form field furin cleavage Z-score, entry CARLKKKVKQAGNASASA [FS-3196] : -0.919

Form field furin cleavage Z-score, entry CARYCRGVSAAGNASASA [FS-1941] : -0.376

Form field furin cleavage Z-score, entry CAQSSRQPRPAGNASASA [FS-141] : -0.656

Form field furin cleavage Z-score, entry CARVLRENGKAGNASASA [FS-3119] : -0.235

Form field furin cleavage Z-score, entry CASGSKKKRKAGNASASA [FS-1278] : 0.447

Form field furin cleavage Z-score, entry CAQSSRHRRAAGNASASA [FS-851] : 12.7

Form field furin cleavage Z-score, entry CARHKRETLKAGNASASA [FS-2678] : 10.5

Form field furin cleavage Z-score, entry CANSKRKSRPAGNASASA [FS-1145] : 0.946

Form field furin cleavage Z-score, entry CAVIAPAVQTAGNASASA [HC1033] : 0.329

Form field furin cleavage Z-score, entry CARLCRKRRCAGNASASA [FS-1478] : 6.48

Form field furin cleavage Z-score, entry CASALYVGDLAGNASASA [HC297] : -0.752

Form field furin cleavage Z-score, entry CATESDIRTEAGNASASA [HC1485] : -0.524

Form field furin cleavage Z-score, entry CADKMEECSQAGNASASA [HC1814] : 0.769

Form field furin cleavage Z-score, entry CAREKRKNRTAGNASASA [FS-1888] : 1.62

Form field furin cleavage Z-score, entry CAHLHQNIVDAGNASASA [HC506] : -0.105

Form field furin cleavage Z-score, entry CARHKRKVFEAGNASASA [FS-1954] : 1.75

Form field furin cleavage Z-score, entry CAKQRRIVGIAGNASASA [FS-2869] : -0.751

Form field furin cleavage Z-score, entry CALSVEEACSAGNASASA [HC1412] : 0.888

Form field furin cleavage Z-score, entry CAIFWRKKRKAGNASASA [FS-337] : 3.52

Form field furin cleavage Z-score, entry CARMCRVAGWAGNASASA [FS-2046] : -0.469

Form field furin cleavage Z-score, entry CARLRRSLGEAGNASASA [FS-1830] : 6.54

Form field furin cleavage Z-score, entry CAVFSQMETKAGNASASA [HC648] : -0.992

Form field furin cleavage Z-score, entry CARYRRTVGIAGNASASA [FS-2851] : 3.86

Form field furin cleavage Z-score, entry CARHKRMCQGAGNASASA [FS-2335] : 0.787

Form field furin cleavage Z-score, entry CARNKRKVFSAGNASASA [FS-2159] : 1.39
